Form: system (TYK2 (Homo sapiens (Human))), quantity (Ki), values below.
METRIC: Ki

molecule="CC1(C)CC(c2ccc(Nc3nc(-c4c(F)cccc4F)nc4c3C(=O)NC4)cc2)C(=O)N1 (stereo not drawn) [Compound I-213]" readout_value="< 10 nM"
molecule="O=C1NCc2nc(-c3c(F)cccc3Cl)nc(Nc3ccc([C@@H]4CCNC4=O)cc3)c21 [Compound I-115]" readout_value="10 to 100 nM"
molecule="CCNC(=O)Cc1ccc(Nc2cc(-c3c(F)cccc3Cl)nc3c2C(=O)NC3)nc1 [Compound I-199]" readout_value="< 10 nM"
molecule="O=C1NCc2nc(-c3c(F)cccc3F)nc(Nc3ccc(C4CCN(C5CCC5)C4=O)cc3)c21 (stereo not drawn) [Compound I-117]" readout_value="< 10 nM"
molecule="C[C@H](CO)NC(=O)Cn1cc(Nc2nc(-c3c(F)cccc3F)nc3c2C(=O)NC3)cn1 [Compound I-70]" readout_value="10 to 100 nM"
molecule="C=C(C(=O)NCC)c1ccc(Nc2nc(-c3c(F)cccc3F)nc3c2C(=O)NC3)cc1 [Compound I-203]" readout_value="10 to 100 nM"
molecule="N[C@H]1CCCN(c2ccc(Nc3cc(-c4c(F)cccc4F)nc4c3C(=O)NC4)nc2)C1 [Compound I-143]" readout_value="< 10 nM"
molecule="O=C(O)Cc1ccc(Nc2cc(-c3c(F)cccc3F)nc3c2C(=O)NC3)nc1 [Compound I-186]" readout_value="< 10 nM"
molecule="Cc1ccc(Nc2nc(-c3c(F)cccc3F)nc3c2C(=O)NC3)cc1F [Compound I-292]" readout_value="10 to 100 nM"

Taken from patent US10196390B2.
